Biological target: C-C chemokine receptor type 2 (Homo sapiens, UniProt P41597)
Sequence (P41597 whole entry): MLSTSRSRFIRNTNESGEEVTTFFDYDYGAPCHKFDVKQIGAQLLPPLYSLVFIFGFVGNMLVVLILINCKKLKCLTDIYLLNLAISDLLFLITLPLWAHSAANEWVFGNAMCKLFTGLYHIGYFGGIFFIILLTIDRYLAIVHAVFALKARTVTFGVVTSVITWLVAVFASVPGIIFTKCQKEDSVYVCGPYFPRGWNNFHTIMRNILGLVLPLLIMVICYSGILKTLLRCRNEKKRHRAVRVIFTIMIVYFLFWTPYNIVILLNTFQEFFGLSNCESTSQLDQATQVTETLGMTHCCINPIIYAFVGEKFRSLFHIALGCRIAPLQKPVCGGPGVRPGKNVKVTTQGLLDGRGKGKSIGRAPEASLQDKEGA
Assay: Displacement of [125I]MCP1 from CCR2 in human PBMCs
experimental-endpoint: IC50 (nM)

CN(C)C1CCC(NC(=O)CNC(=O)c2cccc(C(F)(F)F)c2)C(NCc2ccc(Cl)cc2)C1 (racemic) ... 16
CC(=O)Nc1ccc(CNC2CC(N(C)C)CCC2NC(=O)CNC(=O)c2cccc(C(F)(F)F)c2)cc1 (racemic) ... 7.7
CSc1ccc(C(=O)NC2CCC(NC(=O)OCc3ccccc3)CC2NC(=O)CNC(=O)c2cccc(C(F)(F)F)c2)cc1 (racemic) ... 1610

[A] CNC(=O)NC1CCC(NC(=O)c2ccc(SC)cc2)C(NC(=O)CNC(=O)c2cc(C(F)(F)F)ccc2N)C1 (racemic)
[B] CN(C)C1CCC(NC(=O)CNC(=O)c2cccc(C(F)(F)F)c2)C(NCc2cccc(C(F)(F)F)c2)C1 (racemic)
[C] CSc1ccc(C(=O)NC2CC(NC(=O)OCc3ccccc3)CCC2NC(=O)CNC(=O)c2cccc(C(F)(F)F)c2)cc1 (racemic; form 2)
Your job: order these 3 records by IC50, ascending. Respond with the label ranking, as requested.
C, B, A
(C: 2.4 nM, B: 32.5 nM, A: 112 nM)

* * *

Test: Antagonist activity at CCR2 in human PBMCs assessed as inhibition of MCP1-induced chemotaxis
experimental-endpoint: IC50 (nM)
The response must be a number in nM with no trailing unit.

Sample CSc1ccc(C(=O)NC2CCNCC2NC(=O)CNC(=O)c2cc(C(F)(F)F)ccc2N)cc1 (racemic) — what was its IC50?
109

* * *

Target: C-C chemokine receptor type 2 (Homo sapiens)
Assay: Displacement of [125I]MCP1 from CCR2 in human PBMCs
pIC50: −log10 of the molar value.
experimental-endpoint: pIC50

CSc1ccc(C(=O)NC2CCC(NC(C)C)CC2NC(=O)CNC(=O)c2cccc(C(F)(F)F)c2)cc1 (racemic) ... 6.87

[I] CSc1ccc(C(=O)NC2CCC(NC(C)C)CC2NC(=O)CNC(=O)c2cc(C(F)(F)F)ccc2N)cc1 (racemic)
[II] CC(C)c1ccc(CNC2CC(N(C)C)CCC2NC(=O)CNC(=O)c2cccc(C(F)(F)F)c2)cc1 (racemic)
// compare: I vs II , metric pIC50, want the smaller When you have decided, please share the label of that item.
II
(II: 7.78, I: 8.42)

* * *

Molecular target: C-C chemokine receptor type 2 (Homo sapiens)
Assay: Displacement of [125I]MCP1 from CCR2 in human PBMCs
pIC50: −log10 of the molar value.
experimental-endpoint: pIC50

Cc1ccc(CNC2CC(N(C)C)CCC2NC(=O)CNC(=O)c2cccc(C(F)(F)F)c2)cc1 (racemic) ... 8.00
CSc1ccc(C(=O)NC2CCCCC2NC(=O)CNC(=O)c2cc(C(F)(F)F)ccc2N)cc1 (racemic) ... 6.81

[A] CSc1ccc(C(=O)NC2CCC(NC(=O)OCc3ccccc3)CC2NC(=O)CNC(=O)c2cc(C(F)(F)F)ccc2NC(=O)OC(C)(C)C)cc1 (racemic)
[B] CSc1ccc(C(=O)NC2CC(N)CCC2NC(=O)CNC(=O)c2cccc(C(F)(F)F)c2)cc1 (racemic)
[C] CSc1ccc(C(=O)NC2CC(N)CCC2NC(=O)CNC(=O)c2cc(C(F)(F)F)ccc2N)cc1 (racemic)
[D] COc1ccc(CNC2CC(N(C)C)CCC2NC(=O)CNC(=O)c2cccc(C(F)(F)F)c2)cc1 (racemic)
[E] CSc1ccc(CNC2CC(N(C)C)CCC2NC(=O)CNC(=O)c2cccc(C(F)(F)F)c2)cc1 (racemic)
Descending sort on pIC50 required. Answer with the labels in sequence, matching the requested order.
E, C, D, B, A
(E: 8.62, C: 8.32, D: 7.90, B: 6.64, A: 6.22)
